Tested on: PmTbr T-box DNA-binding domain (GST fusion);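 also: 200 nM protein in PBS on universal arrays averaged over duplicate arrays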
Sequence: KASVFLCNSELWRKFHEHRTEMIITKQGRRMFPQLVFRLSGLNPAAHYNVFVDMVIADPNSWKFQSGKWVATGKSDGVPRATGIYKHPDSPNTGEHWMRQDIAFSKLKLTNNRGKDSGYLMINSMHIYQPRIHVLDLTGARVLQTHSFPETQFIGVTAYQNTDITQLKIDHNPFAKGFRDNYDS
assayOverview: PBM E-score of 8-mer (E-score (dimensionless, -0.5 to 0.5)); higher = stronger binding preference
conditionParameters: the construct has about 5 more residues each side
Over roughly 33,000 sequences, “E-score (dimensionless, -0.5 to 0.5)” has its median near -0.049; the highest 2% begin near 0.37. Only a selection was taken, and the highest values are over-represented in it overall.
Respond with t for PBM E-score of 8-mer values of 0.08 and above, f for values below.

I'd appreciate it if you could say whether CTCACAAC has PBM E-score of 8-mer at least equal to 0.08. t

I'd appreciate it if you could say whether ACACTGTG has PBM E-score of 8-mer at least equal to 0.08. t

I'd appreciate it if you could say whether CACACCGG has PBM E-score of 8-mer at least equal to 0.08. t

I'd appreciate it if you could say whether CGGGCCCG has PBM E-score of 8-mer at least equal to 0.08. t

I'd appreciate it if you could say whether GACACATA has PBM E-score of 8-mer at least equal to 0.08. t

I'd appreciate it if you could say whether AGTCAAAG has PBM E-score of 8-mer at least equal to 0.08. f

I'd appreciate it if you could say whether ACGCATTC has PBM E-score of 8-mer at least equal to 0.08. f

I'd appreciate it if you could say whether AGAACATG has PBM E-score of 8-mer at least equal to 0.08. f

I'd appreciate it if you could say whether CGTACCCC has PBM E-score of 8-mer at least equal to 0.08. f

I'd appreciate it if you could say whether GTCCCCTA has PBM E-score of 8-mer at least equal to 0.08. f

I'd appreciate it if you could say whether ATCGTCAA has PBM E-score of 8-mer at least equal to 0.08. f

I'd appreciate it if you could say whether CTCGTCAA has PBM E-score of 8-mer at least equal to 0.08. t

###

System: PmTbr T-box DNA-binding domain (GST fusion);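 also: 200 nM protein in PBS on universal arrays averaged over duplicate arrays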
Sequence: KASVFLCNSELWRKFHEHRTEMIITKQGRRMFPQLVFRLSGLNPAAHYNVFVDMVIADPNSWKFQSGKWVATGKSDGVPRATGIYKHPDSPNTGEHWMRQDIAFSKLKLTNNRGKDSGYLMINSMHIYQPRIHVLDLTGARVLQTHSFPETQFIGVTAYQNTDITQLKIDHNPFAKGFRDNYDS
assayOverview: PBM E-score of 8-mer (E-score (dimensionless, -0.5 to 0.5)); Tbr is Tbrain of the sea star Patiria miniata (Pm) or the sea urchin Strongylocentrotus purpuratus (Sp); higher = stronger binding preference
conditionParameters: target sequence: T-box / the construct has about 5 more residues each side
Over roughly 33,000 sequences, “E-score (dimensionless, -0.5 to 0.5)” has its median near -0.049; the highest 2% begin near 0.37. What follows is part of a selection rich in the highest values, with near analogues and random picks from the rest.
Respond with true (1) for PBM E-score of 8-mer values of -0.02 and above, false (0) for values below.

Example cases with answers are listed next.
residueString: AAGAGCGC
classLabel: false (0)

residueString: ATCACCCA
classLabel: true (1)

residueString: CTGTGAAC
classLabel: true (1)

residueString: CAGCGATA
classLabel: true (1)

residueString: TCCGCACA
classLabel: true (1)

I'd appreciate it if you could say whether CCGTGAAC has PBM E-score of 8-mer at least equal to -0.02. true (1)

I'd appreciate it if you could say whether TTGTGAAA has PBM E-score of 8-mer at least equal to -0.02. true (1)

I'd appreciate it if you could say whether GCAAAGGA has PBM E-score of 8-mer at least equal to -0.02. false (0)

I'd appreciate it if you could say whether GCGTGAAA has PBM E-score of 8-mer at least equal to -0.02. true (1)

I'd appreciate it if you could say whether AGATTTTC has PBM E-score of 8-mer at least equal to -0.02. true (1)

I'd appreciate it if you could say whether CCGTGAAA has PBM E-score of 8-mer at least equal to -0.02. true (1)
